FYI, the data here is from patent US6770597B2.

Reported phytotoxicity rating XANST is given for each of the following compounds.
- Tested on: cocklebur (Xanthium strumarium, XANST)
- assay-text: Greenhouse herbicide screen, pre-emerge application, phytotoxicity rating
- Format: in vivo
- run-parameters: PRE emergent, 250 g ai/ha, 14 days after application, rating scale 0-100
measured-parameter: phytotoxicity rating XANST

{"compound": "CC1CCCC(C)N1N=C(OC(=O)C(Cl)Cl)c1cc(-n2c(=O)cc(C(F)(F)F)n(C)c2=O)c(F)cc1Cl (stereo not drawn)", "system": "cocklebur (Xanthium strumarium, XANST)", "val": 60}
{"compound": "CC(=O)OC(=NN1C(C)CCCC1C)c1cc(-n2c(=O)cc(C(F)(F)F)n(C)c2=O)c(F)cc1Cl (stereo not drawn)", "system": "cocklebur (Xanthium strumarium, XANST)", "val": 100}
{"compound": "Cn1c(C(F)(F)F)cc(=O)n(-c2cc(C(=O)NNC(=O)OC(C)(C)C)c(Cl)cc2F)c1=O", "system": "cocklebur (Xanthium strumarium, XANST)", "val": 90}
